Consider the following compounds; for each one, report its IC50.
# Test system: MDA-MB-231
# Test Name: Antiproliferative activity against human MDA-MB-231 cells after 48 hrs by MTT assay
# Assay type: functional, cell-based
# Particulars: MDA-MB-231, 48 h
Give just the number in µM; leave the unit off.

Fill in: IC50 of CC[C@@H](C(=O)[C@@H](C)[C@@H](O)[C@H](C)[C@@H]1O[C@@H]([C@@H](CC)C(=O)OCc2cn(CCC(=O)O)nn2)CC[C@@H]1C)[C@H]1O[C@]2(C=C[C@@H](O)[C@]3(CC[C@@](C)([C@H]4CC[C@](O)(CC)[C@H](C)O4)O3)O2)[C@H](C)C[C@@H]1C is ___ 87.4

Fill in: IC50 of CC[C@@H](C(=O)[C@@H](C)[C@@H](O)[C@H](C)[C@@H]1O[C@@H]([C@@H](CC)C(=O)O)CC[C@@H]1C)[C@H]1O[C@]2(C=C[C@@H](OC(=O)Cn3cc(CCO)nn3)[C@]3(CC[C@@](C)([C@H]4CC[C@](O)(CC)[C@H](C)O4)O3)O2)[C@H](C)C[C@@H]1C is ___ 4.72

Fill in: IC50 of CC[C@@H](C(=O)[C@@H](C)[C@@H](O)[C@H](C)[C@@H]1O[C@@H]([C@@H](CC)C(=O)O)CC[C@@H]1C)[C@H]1O[C@]2(C=C[C@@H](OC(=O)Cn3cc(COCCO)nn3)[C@]3(CC[C@@](C)([C@H]4CC[C@](O)(CC)[C@H](C)O4)O3)O2)[C@H](C)C[C@@H]1C is ___ 4.09

----------
# System: MDA-MB-231
# Test Name: Antiproliferative activity against human MDA-MB-231 cells after 48 hrs by MTT assay
# Format: functional, cell-based
# Particulars: MDA-MB-231, 48 h
Consider the following molecules; for each one, report its IC50.
Give just the number in µM; leave the unit off.

Give IC50 (MDA-MB-231) of the following molecule: CC[C@@H](C(=O)[C@@H](C)[C@@H](O)[C@H](C)[C@@H]1O[C@@H]([C@@H](CC)C(=O)OCc2cn(CCCCCC(=O)O)nn2)CC[C@@H]1C)[C@H]1O[C@]2(C=C[C@@H](O)[C@]3(CC[C@@](C)([C@H]4CC[C@](O)(CC)[C@H](C)O4)O3)O2)[C@H](C)C[C@@H]1C 44.1

Give IC50 (MDA-MB-231) of the following molecule: CC[C@@H](C(=O)[C@@H](C)[C@@H](O)[C@H](C)[C@@H]1O[C@@H]([C@@H](CC)C(=O)O)CC[C@@H]1C)[C@H]1O[C@]2(C=C[C@@H](OC(=O)Cn3cc(CCC(=O)O)nn3)[C@]3(CC[C@@](C)([C@H]4CC[C@](O)(CC)[C@H](C)O4)O3)O2)[C@H](C)C[C@@H]1C 3.13

Give IC50 (MDA-MB-231) of the following molecule: CC[C@@H](C(=O)[C@@H](C)[C@@H](O)[C@H](C)[C@@H]1O[C@@H]([C@@H](CC)C(=O)O)CC[C@@H]1C)[C@H]1O[C@]2(C=C[C@@H](OC(=O)Cn3cc(CCCC(=O)O)nn3)[C@]3(CC[C@@](C)([C@H]4CC[C@](O)(CC)[C@H](C)O4)O3)O2)[C@H](C)C[C@@H]1C 1.94

Data origin, for the record: ChEMBL document CHEMBL3992501
